- System: K562 cells
- experiment: K562 Cell Growth Inhibition Assay
- Type: cell-based
- conditionSet: K562; human myelogenous leukemia cell line; cell count after 72 h vs untreated control
- Procedure: K562 cells, a human myelogenous leukemia cell line, were seeded into a 24 wells tissue culture plate (Falcon 3047) (10000/well) in the presence of increasing concentrations of the compounds. After 72 h, cells were harvested and were counted using a cell counter (Coulter Counter-ZM). The percent of inhibition was evaluated in respect to the untreated control cells.
observable: pIC50
Convention used: pIC50 is expressed as -log10 of the molar concentration.

Query string: Entry CC(NC(=O)OC(C)(C)C)C(=O)Nc1ccc2c(c1)C(=Cc1cc(O)c3c(c1O)CCCC3)C(=O)N2 (stereo not drawn) has what pIC50?
Result string: 5.23

Query string: Quick check: pIC50 of CC(N)C(=O)Nc1ccc2c(c1)C(=Cc1cc(O)c3c(c1O)CCCC3)C(=O)N2 (stereo not drawn) ?
Result string: 5.08

Query string: Fill blank: measured pIC50 of the compound CC(N)C(=O)NC(C)C(=O)Nc1ccc2c(c1)C(=Cc1cc(O)c3c(c1O)CCCC3)C(=O)N2 (stereo not drawn) is ____.
Result string: 5.28
